pIC50: −log10 of the molar value.
# pIC50 per entry for UniProt P51531
# Sequence (P51531 whole entry): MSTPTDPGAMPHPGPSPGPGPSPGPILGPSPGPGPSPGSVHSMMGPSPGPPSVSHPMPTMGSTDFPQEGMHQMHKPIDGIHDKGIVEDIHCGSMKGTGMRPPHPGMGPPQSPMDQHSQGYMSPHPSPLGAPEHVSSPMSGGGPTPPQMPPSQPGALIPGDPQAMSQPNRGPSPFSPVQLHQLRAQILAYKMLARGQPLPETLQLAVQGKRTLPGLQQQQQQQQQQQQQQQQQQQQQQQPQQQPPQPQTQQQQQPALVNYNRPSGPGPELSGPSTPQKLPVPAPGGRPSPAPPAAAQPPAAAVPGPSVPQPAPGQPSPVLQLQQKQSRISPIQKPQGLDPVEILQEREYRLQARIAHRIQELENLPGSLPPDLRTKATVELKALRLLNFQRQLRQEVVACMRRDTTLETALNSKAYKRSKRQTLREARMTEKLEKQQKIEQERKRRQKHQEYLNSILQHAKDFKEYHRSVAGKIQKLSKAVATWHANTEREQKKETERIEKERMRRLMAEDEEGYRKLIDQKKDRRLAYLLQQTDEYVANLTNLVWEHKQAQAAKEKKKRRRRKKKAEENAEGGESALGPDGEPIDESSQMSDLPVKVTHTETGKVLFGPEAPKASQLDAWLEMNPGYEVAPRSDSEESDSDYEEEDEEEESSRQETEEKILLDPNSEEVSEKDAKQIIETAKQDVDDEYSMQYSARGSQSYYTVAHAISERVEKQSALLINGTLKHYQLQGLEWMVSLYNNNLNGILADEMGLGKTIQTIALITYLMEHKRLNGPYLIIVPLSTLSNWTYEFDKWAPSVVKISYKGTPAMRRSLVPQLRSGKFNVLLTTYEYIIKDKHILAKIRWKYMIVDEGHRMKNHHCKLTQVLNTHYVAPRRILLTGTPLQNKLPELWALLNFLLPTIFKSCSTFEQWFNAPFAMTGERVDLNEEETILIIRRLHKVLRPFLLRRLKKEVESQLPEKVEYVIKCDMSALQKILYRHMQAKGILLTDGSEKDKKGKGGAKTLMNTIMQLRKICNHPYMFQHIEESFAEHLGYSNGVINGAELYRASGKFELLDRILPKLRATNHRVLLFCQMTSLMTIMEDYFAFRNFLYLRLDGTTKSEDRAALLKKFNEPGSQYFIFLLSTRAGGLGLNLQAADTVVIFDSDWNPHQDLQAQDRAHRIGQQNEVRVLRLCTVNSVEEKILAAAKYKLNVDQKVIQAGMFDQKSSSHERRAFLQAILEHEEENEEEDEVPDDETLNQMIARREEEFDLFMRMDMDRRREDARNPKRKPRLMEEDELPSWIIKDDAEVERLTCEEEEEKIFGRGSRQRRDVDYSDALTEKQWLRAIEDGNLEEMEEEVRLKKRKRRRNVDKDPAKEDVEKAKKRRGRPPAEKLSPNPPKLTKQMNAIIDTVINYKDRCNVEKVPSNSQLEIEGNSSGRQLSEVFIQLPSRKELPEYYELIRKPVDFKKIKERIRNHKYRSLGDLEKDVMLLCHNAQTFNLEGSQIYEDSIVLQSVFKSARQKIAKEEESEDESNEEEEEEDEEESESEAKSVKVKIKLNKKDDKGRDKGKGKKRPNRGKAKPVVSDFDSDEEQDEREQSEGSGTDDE

Solved cases below.
[
  {
    "COMPOUND": "CO[C@H]1CCCN(c2cccc(-c3csc(NC(=O)CNC(=O)c4ccc(N)cc4)n3)c2)C1 [Compound 238]",
    "SUBJECT_OF_TEST": "UniProt P51531",
    "RESULT": "6.00 to 7.00"
  },
  {
    "COMPOUND": "Nc1ccc(C(=O)NCC(=O)Nc2nc(-c3cccc(-c4ccccc4F)c3)cs2)cc1 [Compound 142]",
    "SUBJECT_OF_TEST": "UniProt P51531",
    "RESULT": "6.00 to 7.00"
  },
  {
    "COMPOUND": "COC(=O)Cc1cc(-c2cccc(-c3csc(NC(=O)CNC(=O)c4ccc(N)cc4)n3)c2)ccn1 [Compound 177]",
    "SUBJECT_OF_TEST": "UniProt P51531",
    "RESULT": "> 7.00"
  },
  {
    "COMPOUND": "CC(=O)NCc1ccc(-c2cccc(-c3csc(NC(=O)CNC(=O)c4ccc(N)cc4)n3)c2)cc1 [Compound 123]",
    "SUBJECT_OF_TEST": "UniProt P51531",
    "RESULT": "6.00 to 7.00"
  },
  {
    "COMPOUND": "Nc1ccc(C(=O)NCC(=O)Nc2nc(-c3cccc(N4CCC(C(=O)O)CC4)c3)cs2)cc1 [Compound 187]",
    "SUBJECT_OF_TEST": "UniProt P51531",
    "RESULT": "6.00 to 7.00"
  },
  {
    "COMPOUND": "Nc1ccc(C(=O)NCC(=O)Nc2nc(-c3ccnc(-c4ccncc4)c3)cs2)cc1 [Compound 217]",
    "SUBJECT_OF_TEST": "UniProt P51531",
    "RESULT": "> 7.00"
  },
  {
    "COMPOUND": "CN(C)CC[C@H](NC(=O)c1ccc(N)cc1)C(=O)Nc1nc(-c2cccc(-c3ccncc3)c2)cs1 [Compound 233]",
    "SUBJECT_OF_TEST": "UniProt P51531",
    "RESULT": "6.00 to 7.00"
  },
  {
    "COMPOUND": "CNC(=O)C1(c2cc(-c3cccc(-c4csc(NC(=O)CNC(=O)c5ccc(N)cc5)n4)c3)ccn2)CC1 [Compound 223]",
    "SUBJECT_OF_TEST": "UniProt P51531",
    "RESULT": "> 7.00"
  },
  {
    "COMPOUND": "Cn1ncc2ccc(-c3csc(NC(=O)CNC(=O)c4ccc(N)cc4)n3)cc2c1=O [Compound 150]",
    "SUBJECT_OF_TEST": "UniProt P51531",
    "RESULT": "> 7.00"
  },
  {
    "COMPOUND": "Nc1ccc(C(=O)NCC(=O)Nc2nc(-c3cccc(N4CCC[C@@H](O)C4)c3)cs2)cc1 [Compound 234]",
    "SUBJECT_OF_TEST": "UniProt P51531",
    "RESULT": "6.00 to 7.00"
  }
]

As a next step, examine the compound that follows.
Asked: Specify the recorded pIC50 for CS(=O)(=O)c1ccc(-c2cccc(-c3csc(NC(=O)CNC(=O)c4ccc(N)cc4)n3)c2)cc1 [Compound 134] , system: UniProt P51531.
Given back: 6.00 to 7.00
